I'd be grateful if you could share measured mean fluorescence relative to chimeric antibody for these entries.
- measured_target: T1, dog CD47 (dog, UniProt A0A8I3PM61 19-310)
- T1 construct: also called CD47 on dog RBCs
- T1 sequence: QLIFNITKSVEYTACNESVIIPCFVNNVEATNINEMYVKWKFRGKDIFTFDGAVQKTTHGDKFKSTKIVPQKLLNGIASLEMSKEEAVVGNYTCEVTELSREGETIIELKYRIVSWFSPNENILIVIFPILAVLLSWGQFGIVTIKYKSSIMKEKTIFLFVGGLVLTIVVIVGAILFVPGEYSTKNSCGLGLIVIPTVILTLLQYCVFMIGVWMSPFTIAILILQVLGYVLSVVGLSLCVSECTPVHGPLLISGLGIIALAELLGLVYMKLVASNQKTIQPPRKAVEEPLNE
- assay_procedure: flow cytometry on RBCs, CHO supernatant 10 ng/ml
Give bare numbers, in ratio.

Clone 22 (pVxK7b-037-hum22-LC / pVxK7b-037-hum22-HC) (antibody, human IgG1, kappa, V domains shown) VH: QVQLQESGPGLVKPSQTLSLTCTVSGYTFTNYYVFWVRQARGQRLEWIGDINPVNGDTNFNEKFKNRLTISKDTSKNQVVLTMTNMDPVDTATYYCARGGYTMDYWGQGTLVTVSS VL: EIVLTQSPATLSVSPGERATLSCRSSQSLVHSNGNTYLHWYQQKPGQAPRLLIYKVSYRFSGVPSRFSGSGSGTDFTFTISSLEAEDAATYYCSQNTHVPRTFGQGTKVEIKR
1
Clone 4 (pVxK7b-037-hum04-LC / pVxK7b-037-hum04-HC) (antibody, human IgG1, kappa, V domains shown) VH: QVQLQESGPGLVKPSQTLSLTCTVSGYTFTNYYVFWVRQAPGKGLEWVSDINPVNGDTNFNEKFKNRVTISVDTSKNQFSLKLSSVTAADTAVYYCARGGYTMDYWGQGTLVTVSS VL: DIQMTQSPSSLSASVGDRVTITCRSSQSLVHSNGNTYLHWYLQKPGQSPQLLIYKVSYRFSGIPARFSGSGSGTEFTLTISSLQSEDFAVYYCSQNTHVPRTFGQGTKVEIKR
0.6
Clone 11 (pVxK7b-037-hum11-LC / pVxK7b-037-hum11-HC) (antibody, human IgG1, kappa, V domains shown, also called Cl 11) VH: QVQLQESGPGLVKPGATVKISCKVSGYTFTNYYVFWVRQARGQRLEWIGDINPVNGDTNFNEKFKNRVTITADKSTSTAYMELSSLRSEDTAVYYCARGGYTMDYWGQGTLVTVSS VL: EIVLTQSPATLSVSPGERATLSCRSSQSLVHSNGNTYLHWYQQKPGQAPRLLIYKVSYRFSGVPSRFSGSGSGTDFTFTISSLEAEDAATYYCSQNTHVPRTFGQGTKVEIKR
0.8

Query: Could you tell me which mean fluorescence relative to chimeric antibody is on file for Clone 15 (pVxK7b-037-hum15-LC / pVxK7b-037-hum15-HC) (antibody, human IgG1, kappa, V domains shown) VH: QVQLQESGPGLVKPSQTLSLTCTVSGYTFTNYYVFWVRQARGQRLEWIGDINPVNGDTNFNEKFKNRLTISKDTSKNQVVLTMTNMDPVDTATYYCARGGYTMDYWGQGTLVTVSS VL: AIQLTQSPSSLSASVGDRVTITCRSSQSLVHSNGNTYLHWYQQKPGQAPRLLIYKVSYRFSGVPSRFSGSGSGTEFTLTISSLQPDDFATYYCSQNTHVPRTFGQGTKVEIKR ?
Result: 1.1
